Molecular target: T1, rhIL-21-His (AB235875-1001, Abcam) (human, UniProt Q9HBE4 30-162)
T1 construct: bought; not shown: His tag, length and position not described
T1 sequence (Q9HBE4 30-162 limits assumed): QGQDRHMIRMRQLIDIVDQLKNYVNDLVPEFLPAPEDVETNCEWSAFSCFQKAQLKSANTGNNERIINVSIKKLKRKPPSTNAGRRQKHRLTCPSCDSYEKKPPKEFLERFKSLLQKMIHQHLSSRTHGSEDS
Assay: SPR, Fab on captured rhIL-21-His
Readout type: Kd (nM)
Just the number please, in nM, no unit attached.

These solved cases illustrate the format of a correct answer.
ZAP122 Fab (Fab, V domains shown, Fab; also called ZAP122 wt) VH: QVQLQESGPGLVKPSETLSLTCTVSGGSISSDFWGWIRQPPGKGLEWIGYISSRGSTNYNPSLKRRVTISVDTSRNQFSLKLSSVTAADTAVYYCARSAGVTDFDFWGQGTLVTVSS VL: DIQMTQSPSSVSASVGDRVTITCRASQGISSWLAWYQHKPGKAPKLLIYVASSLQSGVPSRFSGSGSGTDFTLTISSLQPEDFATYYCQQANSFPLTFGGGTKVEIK
0.313
IOO459 Fab (Fab, V domains shown, Fab) VH: QVQLQESGPGLVKPSETLSLTCTVSGGSISSDYWGWIRQPPGKGLEWIGYISSRGSTNYNPSLKRRVTISVDTSRNQFSLKLSSVTAADTAVYYCARSAGVADFDFWGQGTLVTVSS VL: DIQMTQSPSSVSASVGDRVTITCRASQGISSWLAWYQHKPGKAPKLLIYVASSLQSGVPSRFSGSGSGTDFTLTISSLQPEDFATYYCQQANSAPLTFGGGTKVEIK
15.6

[in] Supply recorded Kd for UER756 Fab (Fab, V domains shown, Fab) VH: QVQLQESGPGLVKPSETLSLTCTVSGGSISSDYWGWIRQPPGKGLEWIGYISSSGSTNYNPSLKSRVTISVDTSRNQFSLKLSSVTAADTAVYYCARSAGVTDFDAWGQGTLVTVSS VL: DIQLTQSPSSVSASVGDRVTITCRASQGISSWLAWYQHKPGKAPKLLIYVASSLQSGVPSRFSGSGSGTDFTLTISSLQPEDFATYYCQQASSFPLTFGGGTKVEIK here.
[out] 0.81
